Examples of compounds with documented LD50 at 336 h follow.
method_description: in vivo
condition_summary: mouse, in vivo, po; mice, p.o.; probit analysis; read-out: LD50 ± SE p.o.
Give me the value, and tack the unit on after it.

| compound | LD50 at 336 h |
| --- | --- |
| CCCn1c(=O)[nH]c(=O)c2[nH]cnc21 [D 4028, 3,7-dihydro-3-propyl-1H-purine-2,6-dione] | 501 mg/kg |
| CCCCn1c(=O)[nH]c(=O)c2[nH]cnc21 [D 4031, 3-butyl-3,7-dihydro-1H-purine-2,6-dione] | 408 mg/kg |

Next up:
Which LD50 at 336 h reading was recorded for the compound CC(C)Cn1c(=O)[nH]c(=O)c2[nH]cnc21 [D 4030] ? 304 mg/kg
